Data provenance is patent US11179375B2.

- protocol-notes: in vivo
- reported-conditions: Wistar, rat, po, 0.08 mg/kg/day
Where a name gives a salt, the structure may show the parent alone.
reported-property: AUC (ng·h/mL)
Answer in ng·h/mL, number only, no unit symbol.

Req: Report AUC for CCc1ccc(CCOc2ccc(CC3SC(=O)NC3=O)cc2)nc1 (stereo not shown) [PIO, Pioglitazone HCl] please.
Resp: 1140

---

- protocol-notes: in vivo
- reported-conditions: Wistar, rat, po, 0.16 mg/kg/day
Where a name gives a salt, the structure may show the parent alone.
reported-property: AUC (ng·h/mL)
Answer in ng·h/mL, number only, no unit symbol.

Req: Report AUC for CCc1ccc(CCOc2ccc(CC3SC(=O)NC3=O)cc2)nc1 (stereo not shown) [PIO, Pioglitazone HCl] please.
Resp: 2280

---

- protocol-notes: in vivo
- reported-conditions: rat, 0.5 mg/kg/day
- From the text: Extrapolation to the corresponding dosage in humans was achieved while adjusting for the relative AUC for each.
Structures can show the parent of a compound that is named as a salt.
reported-property: AUC (ng·h/mL)
Answer in ng·h/mL, number only, no unit symbol.

Req: Report AUC for CCc1ccc(CCOc2ccc(CC3SC(=O)NC3=O)cc2)nc1 (stereo not shown) [PIO, Pioglitazone HCl] please.
Resp: 7110
